Data origin: patent US10221139B2

Would you kindly list IC50 for each of these compounds?
- study-target: GASC1 (KDM4C) (Homo sapiens, UniProt Q9H3R0)
- Construct: Full length
- Sequence (Q9H3R0 whole entry): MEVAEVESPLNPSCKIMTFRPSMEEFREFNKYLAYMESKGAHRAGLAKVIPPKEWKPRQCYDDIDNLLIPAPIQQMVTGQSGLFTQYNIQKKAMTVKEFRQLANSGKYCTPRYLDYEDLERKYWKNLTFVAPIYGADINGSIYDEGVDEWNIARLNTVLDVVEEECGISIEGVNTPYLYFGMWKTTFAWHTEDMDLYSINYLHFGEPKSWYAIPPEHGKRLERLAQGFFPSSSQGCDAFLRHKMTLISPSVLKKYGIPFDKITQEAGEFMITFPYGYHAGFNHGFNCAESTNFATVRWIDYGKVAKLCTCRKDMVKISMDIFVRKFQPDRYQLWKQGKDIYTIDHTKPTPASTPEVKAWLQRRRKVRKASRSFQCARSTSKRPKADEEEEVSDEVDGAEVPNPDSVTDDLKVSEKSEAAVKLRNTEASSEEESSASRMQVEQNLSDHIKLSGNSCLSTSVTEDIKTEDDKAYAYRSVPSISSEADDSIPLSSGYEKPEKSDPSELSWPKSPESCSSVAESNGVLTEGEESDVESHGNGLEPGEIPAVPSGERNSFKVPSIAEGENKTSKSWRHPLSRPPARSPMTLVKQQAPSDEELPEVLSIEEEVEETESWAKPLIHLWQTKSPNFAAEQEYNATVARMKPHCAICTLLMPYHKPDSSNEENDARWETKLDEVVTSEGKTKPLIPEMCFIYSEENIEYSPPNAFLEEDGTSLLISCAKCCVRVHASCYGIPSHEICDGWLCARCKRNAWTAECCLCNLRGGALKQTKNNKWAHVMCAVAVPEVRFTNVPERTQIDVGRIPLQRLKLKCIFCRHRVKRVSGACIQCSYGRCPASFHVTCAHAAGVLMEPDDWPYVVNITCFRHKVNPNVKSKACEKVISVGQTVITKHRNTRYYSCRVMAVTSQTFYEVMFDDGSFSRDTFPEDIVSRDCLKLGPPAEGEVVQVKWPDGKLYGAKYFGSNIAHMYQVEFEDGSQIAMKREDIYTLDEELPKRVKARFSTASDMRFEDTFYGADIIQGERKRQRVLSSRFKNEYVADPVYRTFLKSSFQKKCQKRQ
- test-description: Immunofluorescence assay in U2OS cells transfected with pCMVHA JMJD2C (H3K9me3 mark)
- measurement-conditions: 20 hours
- Method: U2OS cells were seeded 24 hours before transfection. Transfection was performed with Fugene HD transfection reagent as recommended by the manufacturer. 6 hours after transfection, the cells were harvested and seeded into multi well plates into media containing compound. The media used was DMEM containing 5% FBS and pen/strep. […] The robot software analyzed individual cells and divided these into HA^+ (transfected cells) and HA^− (non-transfected cells). […]

compound="O=C(CNCc1cc(C(=O)O)ccn1)NC1CCN(Cc2ccc(-c3ccccc3)o2)CC1 [drawing 319]" endpoint_name=IC50 result="> 50 µM"
compound="CCN(CC)CCCCNCc1cc(C(=O)Oc2ccc(OC)cc2)ccn1 [drawing 329]" endpoint_name=IC50 result="1 to 50 µM"

Please supply IC50 for each of the following items, keeping them in order.
1. CCCCN(C)C(=O)CNCc1cc(C(=O)O)ccn1 [drawing 306]
2. CCN(CCN(C)C)C(=O)CNCc1cc(C(=O)O)ccn1 [drawing 328]
3. Cn1c(CNCc2cc(C(=O)O)ccn2)nc2ccccc21 [drawing 307]
4. O=C(O)c1ccnc(CNCCCN2CCCC2)c1 [drawing 325]
5. O=C(O)c1ccnc(CNCc2ccco2)c1 [drawing 303]

1: 1 to 50 µM; 2: > 50 µM; 3: > 50 µM; 4: 1 to 50 µM; 5: 1 to 50 µM

Please supply IC50 for each of the following items, keeping them in order.
1. O=C(O)c1ccnc(CNCC(=O)N2CCCC2)c1 [drawing 305]
2. O=C(O)c1ccnc(CNCC[C@@H]2CCCN2Cc2ccccc2)c1
3. COC(=O)c1ccnc(CNCCCN2CCCC2)c1 [drawing 326]
4. CN(CCCc1nccn1C)C(=O)CNCc1cc(C(=O)O)ccn1 [drawing 312]

1: 1 to 50 µM; 2: > 50 µM; 3: 1 to 50 µM; 4: 1 to 50 µM

---

- study-target: PLU1 (KDM5B) (Homo sapiens)
- Construct: 1-809; host or cells: E. coli
- Sequence (Q9UGL1 1-809): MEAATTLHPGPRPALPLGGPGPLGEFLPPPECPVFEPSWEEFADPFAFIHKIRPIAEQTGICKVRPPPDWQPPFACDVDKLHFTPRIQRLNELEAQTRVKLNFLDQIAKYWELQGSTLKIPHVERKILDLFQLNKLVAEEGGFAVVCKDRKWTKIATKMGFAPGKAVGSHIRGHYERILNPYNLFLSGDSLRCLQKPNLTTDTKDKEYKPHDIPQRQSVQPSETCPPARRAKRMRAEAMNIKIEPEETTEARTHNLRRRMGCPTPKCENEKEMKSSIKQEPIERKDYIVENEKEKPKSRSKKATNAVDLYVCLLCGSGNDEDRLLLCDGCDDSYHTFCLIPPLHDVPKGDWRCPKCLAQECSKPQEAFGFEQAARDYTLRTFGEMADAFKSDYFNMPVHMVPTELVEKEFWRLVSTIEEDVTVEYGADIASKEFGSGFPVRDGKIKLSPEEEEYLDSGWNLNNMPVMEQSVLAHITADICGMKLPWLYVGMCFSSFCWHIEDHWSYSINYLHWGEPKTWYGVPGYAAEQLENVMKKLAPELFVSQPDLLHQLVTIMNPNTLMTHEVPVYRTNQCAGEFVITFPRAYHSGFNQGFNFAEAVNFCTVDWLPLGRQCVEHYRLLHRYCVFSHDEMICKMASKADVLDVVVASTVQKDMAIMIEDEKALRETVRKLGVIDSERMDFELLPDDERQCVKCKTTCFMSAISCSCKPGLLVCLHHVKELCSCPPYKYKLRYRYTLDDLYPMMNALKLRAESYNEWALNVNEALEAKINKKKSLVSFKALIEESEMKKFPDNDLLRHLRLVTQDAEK
- test-description: Histone lysine demethylase AlphaLISA assay, PLU1
- Type: biochemical
- measurement-conditions: substrate H3K4M3B
endpoint-name: IC50

compound=CCN(CCN(C)C)C(=O)CNCc1cc(C(=O)Nc2ccncc2)ccn1 endpoint_name=IC50 result="< 0.1 µM"
compound=CCOC(=O)c1ccccc1OC(=O)c1ccnc(CNCCCCN(CC)CC)c1 endpoint_name=IC50 result="< 0.1 µM"
compound="CC(C)=CCCC(C)CCN1CCC(NC(=O)CNCc2cc(C(=O)O)ccn2)C1 (stereo not drawn)" endpoint_name=IC50 result="< 0.1 µM"
compound="C=CC(CCNC(=O)C(F)(F)F)OC(=O)c1ccnc(CNCC(=O)N(CC)CCN(C)C)c1 (stereo not drawn)" endpoint_name=IC50 result="0.1 to 1 µM"
compound=CCN(CCN(C)C)C(=O)CNCc1cc(C(=O)OC)ccn1 endpoint_name=IC50 result="< 0.1 µM"
compound=CN(C)CCN(C)Cc1cc(C(=O)O)ccn1 endpoint_name=IC50 result="0.1 to 1 µM"
compound=Cn1c(CNCc2cc(C(=O)O)ccn2)nc2ccccc21 endpoint_name=IC50 result="< 0.1 µM"
compound=O=C(O)c1ccnc(CNCC(=O)N2CCCC2)c1 endpoint_name=IC50 result="< 0.1 µM"
compound=CCN(CC(=O)N1CCCCC1)Cc1cc(C(=O)O)ccn1 endpoint_name=IC50 result="0.1 to 1 µM"
compound=CCN(CCC#N)C(=O)CNCc1cc(C(=O)O)ccn1 endpoint_name=IC50 result="< 0.1 µM"

Please supply IC50 for each of the following items, keeping them in order.
1. CN(CCC(N)=O)C(=O)CNCc1cc(C(=O)O)ccn1
2. COCCN1CCN(C(=O)CNCc2cc(C(=O)O)ccn2)CC1
3. CCN(CCN(C)C)C(=O)CNCc1cc(C(=O)O)ccn1
4. CCN(CCN(C)C)C(=O)CNCc1cc(C(=O)OCCF)ccn1
5. CCOC(=O)N(C)c1ccc(COC(=O)c2ccnc(CNCCCCN(CC)CC)c2)cc1

< 0.1 µM
< 0.1 µM
< 0.1 µM
< 0.1 µM
< 0.1 µM

Please supply IC50 for each of the following items, keeping them in order.
1. CCN(CCN(C)C)C(=O)CNCc1cc(C(=O)OCC(F)(F)F)ccn1
2. CCCCCCCCCCCCCCCC(=O)OCC(COC(=O)CCCCCCCCCCCCCCC)OC(=O)c1ccnc(CNCC(=O)N(CC)CCN(C)C)c1
3. CC(C)(C)OC(=O)N1CC[C@@H](NCc2cc(C(=O)O)ccn2)C1
4. CCN(CCN(C)C)C(=O)CNCc1cc(C(=O)N(C)S(C)(=O)=O)ccn1
5. O=C(O)c1ccnc(CNCC2CC2)c1
6. CCCN(CC(=O)N1CCCCC1)Cc1cc(C(=O)O)ccn1

["< 0.1 µM", "0.1 to 1 µM", "≥ 1 µM", "< 0.1 µM", "< 0.1 µM", "0.1 to 1 µM"]
